TEST TARGET: hROMK (hKir1.1) (Homo sapiens, UniProt P48048)
Sequence (P48048 whole entry): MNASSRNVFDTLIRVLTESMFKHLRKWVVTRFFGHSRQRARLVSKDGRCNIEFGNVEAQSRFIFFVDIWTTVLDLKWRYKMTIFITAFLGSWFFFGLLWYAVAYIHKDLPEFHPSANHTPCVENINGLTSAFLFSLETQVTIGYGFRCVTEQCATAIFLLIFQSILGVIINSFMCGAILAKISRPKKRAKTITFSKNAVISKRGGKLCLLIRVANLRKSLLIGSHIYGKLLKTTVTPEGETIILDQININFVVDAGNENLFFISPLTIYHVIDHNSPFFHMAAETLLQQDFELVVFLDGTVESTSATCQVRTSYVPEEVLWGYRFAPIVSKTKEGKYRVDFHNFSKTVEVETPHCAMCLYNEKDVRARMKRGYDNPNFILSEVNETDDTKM
PROTOCOL DESCRIPTION: Thallium Flux Assay (ROMK channel functional thallium flux, FLIPR-Tetra)
REPORTED CONDITIONS: HEK293 cells stably expressing hROMK (hKir1.1); 30 min compound incubation
pIC50: −log10 of the molar value.
Recorded measurements of pIC50, one per entry

- COMPOUND: "COC1CN(C2=C(C)C(=O)OC2)C(=O)C12CC1CCC(C2)N1C[C@H](O)c1ccc(-n2cnnn2)nc1 (single isomer, unassigned) [Example 159]"
  TEST TARGET: "hROMK (hKir1.1) (Homo sapiens, UniProt P48048)"
  pIC50: 7.40
- COMPOUND: "CC1=C(N2CCC3(CC4CCC(C3)N4C[C@@H](O)c3cc(C)c(-n4cnnn4)nn3)C2=O)COC1=O (some centres unmarked) [Example 54]"
  TEST TARGET: "hROMK (hKir1.1) (Homo sapiens, UniProt P48048)"
  pIC50: 7.70
- COMPOUND: "CC1(O)CC2(CCN(C[C@H](O)c3ccc(-n4cnnn4)nc3)CC2)C(=O)N1C1=CC(=O)OC1 (some centres unmarked) [Example 157]"
  TEST TARGET: "hROMK (hKir1.1) (Homo sapiens, UniProt P48048)"
  pIC50: 7.15
- COMPOUND: "CC1OC(=O)C=C1N1C(=O)C2(CCN(C[C@H](O)c3ccc(-n4cnnn4)nc3)CC2)C[C@H]1C (single isomer, unassigned) [Example 230]"
  TEST TARGET: "hROMK (hKir1.1) (Homo sapiens, UniProt P48048)"
  pIC50: 7.10
- COMPOUND: "CC1=C(N2CCC3(CCN(C[C@H](O)c4ccc(-n5cnnn5)c(C#N)c4)CC3)C2=O)COC1=O [Example 95]"
  TEST TARGET: "hROMK (hKir1.1) (Homo sapiens, UniProt P48048)"
  pIC50: 7.30
- COMPOUND: "CC1=C(N2CCC3(CCN(CCc4nnc(-n5cnnn5)cc4C)CC3)C2=O)COC1=O [Example 236]"
  TEST TARGET: "hROMK (hKir1.1) (Homo sapiens, UniProt P48048)"
  pIC50: 8.40
- COMPOUND: "COC1CN(CCc2ccc(-n3cnnn3)nn2)CCC12CCN(C1=C(C)C(=O)OC1)C2=O (single isomer, unassigned) [Example 258]"
  TEST TARGET: "hROMK (hKir1.1) (Homo sapiens, UniProt P48048)"
  pIC50: 6.92
- COMPOUND: "CC1=C(N2CCC3(CC4CCC(C3)N4C[C@@H](O)c3ccc(-n4cnnn4)cn3)C2=O)COC1=O (some centres unmarked) [Example 46]"
  TEST TARGET: "hROMK (hKir1.1) (Homo sapiens, UniProt P48048)"
  pIC50: 7.70
- COMPOUND: "CC1=C(N2C=CC3(CCN(C[C@H](O)c4nnc(-n5cnnn5)cc4C)CC3)C2=O)COC1=O [Example 154]"
  TEST TARGET: "hROMK (hKir1.1) (Homo sapiens, UniProt P48048)"
  pIC50: 7.52
- COMPOUND: "C[C@H]1CC2(CCN(CCc3cnc(-n4cnnn4)cn3)CC2)C(=O)N1C1=CC(=O)OC1 [Example 246]"
  TEST TARGET: "hROMK (hKir1.1) (Homo sapiens, UniProt P48048)"
  pIC50: 7.70
- COMPOUND: "CC1CC2(CC3CCC(C2)N3C[C@H](O)c2cnc(-n3cnnn3)cn2)C(=O)N1C1=CC(=O)OC1 (single isomer, unassigned) [Example 89]"
  TEST TARGET: "hROMK (hKir1.1) (Homo sapiens, UniProt P48048)"
  pIC50: 7.52
- COMPOUND: "CC1=C(N2CCC3(CC4COCC(C3)N4C[C@H](O)c3cnc(-n4cnnn4)cn3)C2=O)COC1=O (some centres unmarked) [Example 181]"
  TEST TARGET: "hROMK (hKir1.1) (Homo sapiens, UniProt P48048)"
  pIC50: 6.82
- COMPOUND: "CC1=C(N2CCC3(CC4CCC(C3)N4C[C@@H](O)c3ccc(-n4cnnn4)nn3)C2=O)COC1=O (some centres unmarked) [Example 53]"
  TEST TARGET: "hROMK (hKir1.1) (Homo sapiens, UniProt P48048)"
  pIC50: 8.00
- COMPOUND: "COC1CN(C2=C(C)C(=O)OC2)C(=O)C12CC1CCC(C2)N1C[C@H](O)c1cnc(-n2cnnn2)cn1 (single isomer, unassigned) [Example 162]"
  TEST TARGET: "hROMK (hKir1.1) (Homo sapiens, UniProt P48048)"
  pIC50: 7.40
